Quick reference for GI50 among some compounds
Test system: A498 renal
Assay: NCI tumour cell line growth inhibition, 48 h

Example entries and their recorded answers appear below.
[
  {
    "compound": "Cc1ccc(SC2c3ccc(C)cc3Oc3nc(N)c(C#N)c(N)c32)cc1 (stereo unspecified)",
    "target-system": "A498 renal",
    "recorded-endpoint": "GI50",
    "observed-result": "2.72 µM"
  },
  {
    "compound": "CCCCC#CC1=C(Br)C(=O)OC1",
    "target-system": "A498 renal",
    "recorded-endpoint": "GI50",
    "observed-result": "18.1 µM"
  },
  {
    "compound": "COc1cc(-c2oc(=O)ccc2C#Cc2ccccn2)cc(OC)c1OC",
    "target-system": "A498 renal",
    "recorded-endpoint": "GI50",
    "observed-result": "3.81 µM"
  },
  {
    "compound": "Nc1ccc([N+](=O)[O-])cc1N=C/C=C/c1ccccc1",
    "target-system": "A498 renal",
    "recorded-endpoint": "GI50",
    "observed-result": "15.1 µM"
  },
  {
    "compound": "O=C(Nc1ccc(Br)cc1F)c1cc(F)ccc1O",
    "target-system": "A498 renal",
    "recorded-endpoint": "GI50",
    "observed-result": "0.172 µM"
  }
]

Okay, now this compound:
Problem: # input compound: `Cc1cc(Cl)cc(OCCn2cc(F)cn2)c1-c1nc(N)nc2c1CN(C(=O)NCC(C)(F)F)C2` ; wanted: its GI50
Result: 0.261 µM
